SYSTEM NAME: SARS-CoV-2 M^pro (Severe acute respiratory syndrome coronavirus 2, UniProt P0DTD1)
PROCEDURE TEXT: biochemical
ASSAY CONDITIONS: converted from IC50 based on the assumption of the competitive inhibition without covalent binding; read-out: Ki
Structures can show the parent of a compound that is named as a salt.
QUANTITY KIND: Ki (nM)
Entry rule: numbers only, all in nM.

1) CCOc1nc2cccc(C(=O)OC(C)OC(=O)OC3CCCCC3)c2n1Cc1ccc(-c2ccccc2-c2nnn[nH]2)cc1 (stereo not drawn): 180

Input: Item CC(=O)OCC(=O)NCCCOc1cccc(CN2CCCCC2)c1 [Roxatidine acetate hydrochloride] has what recorded Ki?
Output: 1330

Input: // query Ki value for entry CC(C)[C@H](N)C(=O)OCC(CO)OCn1cnc2c(=O)nc(N)[nH]c21 (stereo partly drawn) [Valganciclovir Hydrochloride]
Output: 1090

Input: Returns the measured Ki for the input molecule. Input: CC(C)[C@H](N)C(=O)OCCOCn1cnc2c(=O)[nH]c(N)nc21 [Valacyclovir hydrochloride]
Output: 1090

Input: I'd like to know its Ki. The molecule in question is `COC(=O)N[C@H](C(=O)N[C@@H](Cc1ccccc1)[C@@H](O)CN(Cc1ccc(-c2ccccn2)cc1)NC(=O)[C@@H](NC(=O)OC)C(C)(C)C)C(C)(C)C`
Output: 490

Input: Can you look up the measured Ki of `CN(C)[C@@H]1C(O)=C(C(N)=O)C(=O)[C@@]2(O)C(O)=C3C(=O)c4c(O)cccc4[C@@](C)(O)[C@H]3[C@H](O)[C@@H]12` for me?
Output: 990
